This collection of values is drawn from paper PMC6554663.

Assay: PK analysis in satellite dogs
Format: in vivo, dog
Cond: male, beagle, dog, whole blood, po, 1 mg/kg, dosed EC1728 1 mg/kg oral qd; male dog; Day 5; detected EC1728; blood
Recorded endpoint: AUC(0-t) (ng·h/mL)
Report only the number, with the unit ng·h/mL understood.

Incoming: Query (compound): "O=C(Nc1ccc(OC(F)(F)F)cc1)N[C@H]1CC[C@H](Oc2ccc(C(=O)O)cc2)CC1" ; field requested: AUC(0-t)
Outgoing: 32000

====

Assay: PK analysis in satellite dogs
Assay type: in vivo, dog
Cond: male, beagle, dog, whole blood, po, 5 mg/kg, dosed EC3039 5 mg/kg oral qd; male dog; Day 5; detected EC3039; blood
Recorded endpoint: Cmax (ng/mL)
Write it as a number; the unit ng/mL goes unstated.

Incoming: Query: Cmax; subject: "CN(C(=O)N[C@H]1CC[C@H](Oc2ccc(C(=O)O)cc2)CC1)c1ccc(OC(F)(F)F)cc1"
Outgoing: 32100

====

Assay: PK analysis in satellite dogs
Assay type: in vivo, dog
Cond: male, beagle, dog, whole blood, po, 5 mg/kg, dosed EC1728 5 mg/kg oral qd; male dog; Day 1; detected EC1728; blood
Recorded endpoint: AUC(0-t) (ng·h/mL)
The figure you give is taken to be in ng·h/mL; do not add the unit.

Incoming: Field request: AUC(0-t) | item: "O=C(Nc1ccc(OC(F)(F)F)cc1)N[C@H]1CC[C@H](Oc2ccc(C(=O)O)cc2)CC1"
Outgoing: 3760

====

Assay: PK analysis in satellite dogs
Type: in vivo, dog
Cond: male, beagle, dog, whole blood, po, 5 mg/kg, dosed EC3039 5 mg/kg oral qd; male dog; Day 1; detected EC3039; blood
Recorded endpoint: AUC(0-t) (ng·h/mL)
Provide only the numeric value, understood in ng·h/mL.

Incoming: What value of AUC(0-t) has been recorded for this entry: "CN(C(=O)N[C@H]1CC[C@H](Oc2ccc(C(=O)O)cc2)CC1)c1ccc(OC(F)(F)F)cc1"
Outgoing: 46500

====

Assay: PK analysis in satellite dogs
Format: in vivo, dog
Cond: female, beagle, dog, whole blood, po, 5 mg/kg, dosed EC3039 5 mg/kg oral qd; female dog; Day 1; detected EC3039; blood
Experimental: Eight satellite dogs (2 per each group) had whole blood collected for PK analysis on study Days […]. On Day 1, blood was collected immediately prior to dosing, and again at 0.25, 0.5, 1, 2, 4, 6, and 8 (±5 min) after dosing. […] For PK analysis in the satellite group, individual parameters were calculated by fitting blood concentrations to a non-compartmental analysis using Kinetica software (Thermo Fisher Scientific version 5.1). […]
Recorded endpoint: AUC(0-t)
Phrase the answer as number then unit, nothing more needed.

Incoming: Entry "CN(C(=O)N[C@H]1CC[C@H](Oc2ccc(C(=O)O)cc2)CC1)c1ccc(OC(F)(F)F)cc1" : reported AUC(0-t) = ?
Outgoing: 67200 ng·h/mL

====

Assay: PK analysis in satellite dogs
Type: in vivo, dog
Cond: male, beagle, dog, whole blood, po, 1 mg/kg, dosed EC1728 1 mg/kg oral qd; male dog; Day 1; detected EC1728; blood
Recorded endpoint: Cmax

Incoming: Look up Cmax for this compound: "O=C(Nc1ccc(OC(F)(F)F)cc1)N[C@H]1CC[C@H](Oc2ccc(C(=O)O)cc2)CC1"
Outgoing: 330 ng/mL

====

Assay: PK analysis in satellite dogs
Type: in vivo, dog
Cond: male, beagle, dog, whole blood, po, 1 mg/kg, dosed EC1728 1 mg/kg oral qd; male dog; Day 1; detected EC1728; blood
Recorded endpoint: AUC(0-t)
Param answer (str): number followed by unit.

Incoming: For O=C(Nc1ccc(OC(F)(F)F)cc1)N[C@H]1CC[C@H](Oc2ccc(C(=O)O)cc2)CC1 [EC1728] , what is its reported AUC(0-t)?
Outgoing: 1690 ng·h/mL

====

Assay: PK analysis in satellite dogs
Type: in vivo, dog
Cond: male, beagle, dog, whole blood, po, 1 mg/kg, dosed EC3039 1 mg/kg oral qd; male dog; Day 1; detected EC3039; blood
Recorded endpoint: AUC(0-t) (µg·h/mL)
Value expressed in µg·h/mL; do not type the unit.

Incoming: Given "CN(C(=O)N[C@H]1CC[C@H](Oc2ccc(C(=O)O)cc2)CC1)c1ccc(OC(F)(F)F)cc1" , state its recorded AUC(0-t).
Outgoing: 2.49

====

Assay: PK analysis in satellite dogs
Assay type: in vivo, dog
Cond: beagle, whole blood; dosed EC3039 1 mg/kg oral qd; male dog; Day 5; detected EC3039; blood; read-out: T1/2 (converted)
Recorded endpoint: half-life (h)
Could you give me the number in h? Just the number is fine.

Incoming: # input molecule: "CN(C(=O)N[C@H]1CC[C@H](Oc2ccc(C(=O)O)cc2)CC1)c1ccc(OC(F)(F)F)cc1" ; wanted: its half-life
Outgoing: 33

====

Assay: PK analysis in satellite dogs
Assay type: in vivo, dog
Cond: female, beagle, dog, whole blood, po, 5 mg/kg, dosed EC1728 5 mg/kg oral qd; female dog; Day 1; detected EC1728; blood
Recorded endpoint: AUC(0-t)
Kindly report the value followed by its unit.

Incoming: Please give the measured AUC(0-t) for this compound: "O=C(Nc1ccc(OC(F)(F)F)cc1)N[C@H]1CC[C@H](Oc2ccc(C(=O)O)cc2)CC1"
Outgoing: 4940 ng·h/mL

====

Assay: PK analysis in satellite dogs
Assay type: in vivo, dog
Cond: female, beagle, dog, whole blood, po, 1 mg/kg, dosed EC1728 1 mg/kg oral qd; female dog; Day 1; detected EC1728; blood
Recorded endpoint: Cmax (ng/mL)
Numeric answer only, unit ng/mL assumed.

Incoming: Look up Cmax: O=C(Nc1ccc(OC(F)(F)F)cc1)N[C@H]1CC[C@H](Oc2ccc(C(=O)O)cc2)CC1 [EC1728]
Outgoing: 308

====

Assay: PK analysis in satellite dogs
Assay type: in vivo, dog
Cond: female, beagle, dog, whole blood, po, 5 mg/kg; read-out: T1/2 (converted)
Recorded endpoint: half-life (h)
Give just the numeric value; h need not be written.

Incoming: Which half-life is listed for "O=C(Nc1ccc(OC(F)(F)F)cc1)N[C@H]1CC[C@H](Oc2ccc(C(=O)O)cc2)CC1" ?
Outgoing: 23

====

Assay: PK analysis in satellite dogs
Type: in vivo, dog
Cond: beagle, dog, whole blood, oral; satellite dogs, range over both compounds, Table 3; read-out: half-life
Recorded endpoint: half-life

O=C(Nc1ccc(OC(F)(F)F)cc1)N[C@H]1CC[C@H](Oc2ccc(C(=O)O)cc2)CC1 ... 24 to 40 h

// switching to the query molecule
Incoming: Fill in: half-life of "CN(C(=O)N[C@H]1CC[C@H](Oc2ccc(C(=O)O)cc2)CC1)c1ccc(OC(F)(F)F)cc1" is ___
Outgoing: 24 to 40 h

====

Assay: PK analysis in satellite dogs
Type: in vivo, dog
Cond: male, beagle, dog, whole blood, po, 1 mg/kg, dosed EC3039 1 mg/kg oral qd; male dog; Day 5; detected EC3039; blood
Procedure: Eight satellite dogs (2 per each group) had whole blood collected for PK analysis on study Days […]. On Day 1, blood was collected immediately prior to dosing, and again at 0.25, 0.5, 1, 2, 4, 6, and 8 (±5 min) after dosing. […] For PK analysis in the satellite group, individual parameters were calculated by fitting blood concentrations to a non-compartmental analysis using Kinetica software (Thermo Fisher Scientific version 5.1). […]
Recorded endpoint: Cmax
Answer with the value and then the unit.

Incoming: Recorded Cmax of "CN(C(=O)N[C@H]1CC[C@H](Oc2ccc(C(=O)O)cc2)CC1)c1ccc(OC(F)(F)F)cc1" , please.
Outgoing: 2.3 µg/mL

====

Assay: PK analysis in satellite dogs
Format: in vivo, dog
Cond: female, beagle, dog, whole blood, po, 5 mg/kg, dosed EC3039 5 mg/kg oral qd; female dog; Day 5; detected EC3039; blood
Recorded endpoint: AUC(0-t) (µg·h/mL)
Answer in µg·h/mL, number only, no unit symbol.

Incoming: Need AUC(0-t), item "CN(C(=O)N[C@H]1CC[C@H](Oc2ccc(C(=O)O)cc2)CC1)c1ccc(OC(F)(F)F)cc1"
Outgoing: 589

====

Assay: PK analysis in satellite dogs
Type: in vivo, dog
Cond: female, beagle, dog, whole blood, po, 5 mg/kg, dosed EC3039 5 mg/kg oral qd; female dog; Day 1; detected EC3039; blood
Recorded endpoint: Cmax (ng/mL)
Respond numerically; units are ng/mL and should not be typed.

Incoming: Cmax lookup needed for CN(C(=O)N[C@H]1CC[C@H](Oc2ccc(C(=O)O)cc2)CC1)c1ccc(OC(F)(F)F)cc1 [EC3039] , thanks.
Outgoing: 18000

====

Assay: PK analysis in satellite dogs
Format: in vivo, dog
Cond: beagle, whole blood; dosed EC3039 5 mg/kg oral qd; female dog; Day 5; detected EC3039; blood; read-out: T1/2 (converted)
Recorded endpoint: half-life (h)
Express your answer in h, writing the number without its unit.

Incoming: I'd like to know its half-life. The molecule in question is "CN(C(=O)N[C@H]1CC[C@H](Oc2ccc(C(=O)O)cc2)CC1)c1ccc(OC(F)(F)F)cc1"
Outgoing: 25
